Item-by-item account of IC50
# Measurement Target: Human immunodeficiency virus type 1 integrase (Human immunodeficiency virus 1, UniProt Q7ZJM1)
# Sequence (Q7ZJM1 whole entry): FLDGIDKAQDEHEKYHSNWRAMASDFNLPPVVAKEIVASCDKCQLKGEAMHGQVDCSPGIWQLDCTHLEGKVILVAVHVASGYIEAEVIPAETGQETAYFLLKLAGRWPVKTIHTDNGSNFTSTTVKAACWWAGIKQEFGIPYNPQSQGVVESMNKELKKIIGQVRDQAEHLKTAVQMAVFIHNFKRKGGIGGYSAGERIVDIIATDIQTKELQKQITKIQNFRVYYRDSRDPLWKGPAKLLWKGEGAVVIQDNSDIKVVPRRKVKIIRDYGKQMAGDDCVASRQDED
# Protocol: Inhibition of wild type HIV-1 integrase strand transfer activity after 30 mins
Positions of bridges follow the written chain, without caps; N, C: chain ends. Non-standard residues stand in square brackets, D forms with d. Residues, ends and D or L forms follow the SMILES beside them. S5 = C=CCCC[C@](C)(N)C(=O)O
Provide only the numeric value, understood in µM.

Enquiry: Request the reported IC50 associated with CC(C)C[C@@H]1NC(=O)[C@H](CCCCN)NC(=O)[C@H](CC(C)C)NC(=O)[C@@](C)(NC(=O)[C@H](Cc2ccccc2)NC(=O)[C@H](Cc2ccc(O)cc2)NC(=O)[C@H](C)NC(=O)[C@@H](N)[C@@H](C)O)CCC/C=C\CCC[C@@](C)(C(=O)NCC(=O)N[C@@H](CCCNC(=N)N)C(=O)N[C@@H](Cc2c[nH]c3ccccc23)C(=O)O)NC1=O (H-TAYF[S5]LKL[S5]GRW-OH; staple (Z) 5-9)
Return: 6

Enquiry: Request: CC(C)C[C@H](NC(=O)[C@H](CCCCN)NC(=O)[C@H](CC(C)C)NC(=O)[C@]1(C)CCC/C=C\CCC[C@](C)(N)C(=O)N[C@@H](C)C(=O)N[C@@H](Cc2ccc(O)cc2)C(=O)N[C@@H](Cc2ccccc2)C(=O)N1)C(=O)N[C@@H](C)C(=O)NCC(=O)N[C@@H](CCCNC(=N)N)C(=O)N[C@@H](Cc1c[nH]c2ccccc12)C(=O)O (H-[S5]AYF[S5]LKLAGRW-OH; staple (Z) 1-5)
Return: 19

Enquiry: Request: CC(C)C[C@@H]1NC(=O)[C@H](CCCCN)NC(=O)[C@H](CC(C)C)NC(=O)[C@@](C)(NC(=O)[C@H](Cc2ccccc2)NC(=O)[C@H](Cc2ccc(O)cc2)NC(=O)[C@H](C)NC(=O)[C@@H](NC(=O)c2ccc3c(c2)C(=O)OC32c3ccc(O)cc3Oc3cc(O)ccc32)[C@@H](C)O)CCC/C=C\CCC[C@@](C)(C(=O)NCC(=O)N[C@@H](CCCNC(=N)N)C(=O)N[C@@H](Cc2c[nH]c3ccccc23)C(=O)O)NC1=O (mixture of isomers)
Return: 6
